Target: T1, RBFOX1 RRM RbFoxmut (Fox-RRM*) (Homo sapiens, UniProt Q9NWB1 109-208, R118D;E147R;N151S;E152T)
T1 sequence: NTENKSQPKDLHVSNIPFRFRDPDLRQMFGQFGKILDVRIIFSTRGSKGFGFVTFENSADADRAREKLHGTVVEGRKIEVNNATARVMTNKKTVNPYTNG
Experiment: EMSA; HiTS-Eq, 1 nM pool, 10 min; buffer printed only for the single-RNA assays: 10 mM Tris pH 7.5, 150 mM NaCl, 3.4 mM EDTA, 0.001% NP-40, 30 C
Settings: tags: His6 N-terminal (pET28a); label: 5' 32P
Over roughly 16,000 sequences, “ka relative to ugcaugu” has its median near 0.096; the highest 2% begin near 0.35. This is one part of a sample in which the highest values are shown more often than they occur.
Please respond with reported binding signal for every item in the list.

INPUT: For GCGAAUU (DNA:RNA) RNA: GGGAGACCGGAAUUCAGAUUGUCCGCGAAUUUUAAAUCCCGUCGUAGCCACCA DNA 1: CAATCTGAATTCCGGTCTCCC DNA 2: TGGTGGCTACGACGGGATT , what is its reported binding signal?
OUTPUT: 0.113 KA relative to UGCAUGU

INPUT: For GAUUGUG (DNA:RNA) RNA: GGGAGACCGGAAUUCAGAUUGUCCGAUUGUGUUAAAUCCCGUCGUAGCCACCA DNA 1: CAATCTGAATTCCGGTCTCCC DNA 2: TGGTGGCTACGACGGGATT , what is its reported binding signal?
OUTPUT: 0.249 KA relative to UGCAUGU
